Molecular target: T1, Full-length human HER3 extracellular domain (ECD) (human, UniProt P21860 20-643)
T1 construct: also called human HER3 ECD; HER-3 ECD full length
T1 sequence (P21860 20-643): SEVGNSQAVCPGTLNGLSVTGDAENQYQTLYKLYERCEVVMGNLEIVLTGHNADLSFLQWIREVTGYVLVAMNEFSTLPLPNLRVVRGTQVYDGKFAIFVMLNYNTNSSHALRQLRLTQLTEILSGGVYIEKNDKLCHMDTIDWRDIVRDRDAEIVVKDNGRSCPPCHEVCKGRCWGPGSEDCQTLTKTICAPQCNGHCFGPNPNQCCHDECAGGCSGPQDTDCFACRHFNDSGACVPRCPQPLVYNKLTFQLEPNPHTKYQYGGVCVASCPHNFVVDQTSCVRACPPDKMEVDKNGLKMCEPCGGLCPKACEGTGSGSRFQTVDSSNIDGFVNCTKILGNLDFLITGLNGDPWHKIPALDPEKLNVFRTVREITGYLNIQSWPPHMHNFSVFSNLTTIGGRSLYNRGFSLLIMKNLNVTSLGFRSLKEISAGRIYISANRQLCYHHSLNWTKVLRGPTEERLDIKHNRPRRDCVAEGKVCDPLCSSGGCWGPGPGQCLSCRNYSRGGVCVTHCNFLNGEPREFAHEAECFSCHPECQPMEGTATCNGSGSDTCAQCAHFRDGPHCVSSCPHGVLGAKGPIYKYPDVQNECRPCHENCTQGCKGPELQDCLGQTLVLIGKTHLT
Assay: BIACORE 3000 SPR, mAb captured by anti-human Fc, ECD as analyte, 25 C
Binary classification by kon, with 400000 M⁻¹ s⁻¹ as an inclusive lower bound for fulfilled; all other cases are not fulfilled.

Input: hey, is kon for this one >= 400000 M⁻¹ s⁻¹? 1D9 H6L0 RR antibody (antibody, V domains shown, Humanized RR variant) VH: QVQLVQSGAEVKKPGASVKVSCKASGYTFTSYWMHWVRQAPGQGLEWMGVIDPSDGYSHYNQKFKGKVTLTVDTSISTAYMELSRLRSDDTAVYYCAGGLAGTLDYWGQGTTVTVSS VL: DIQMTQSPSSLSASVGDRVTITCRSSQSIVHSSGNTYLQWYQQKPGKAPKLLIYKVSNRFSGVPSRFSGSGSGTDFTLTISSLQPEDFAVYYCFQGSHVPWTFGQGTKLEIKR
Output: fulfilled

Input: // inclusive: kon at least 400000 M⁻¹ s⁻¹? input: 1D9 H6L4 RR antibody (antibody, V domains shown) VH: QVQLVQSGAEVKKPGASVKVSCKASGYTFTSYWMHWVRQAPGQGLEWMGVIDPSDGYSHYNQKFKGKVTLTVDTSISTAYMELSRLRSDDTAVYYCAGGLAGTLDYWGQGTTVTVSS VL: DILMTQSPSSLSASVGDRVTITCRSSQSIVHSSGNTYLQWYQQKPGKAPKLLIYKVSNRFSGVPSRFSGSGSGTDFTLTISSLQPEDFAVYYCFQGSHVPWTFGQGTKLEIKR
Output: fulfilled

Input: Answer whether kon of 15D5 H2L2 antibody (antibody, V domains shown, Humanized 15D5 variant) VH: QVQLVQSGAEVKKPGASVKVSCKASGYTFTDYNMNWVKQAPGQGLEWIGGINPNYGTTVYNQKFKGKATLTVDQSISTAYMELSRLRSDDTAVYYCARMTTIVPFDYWGQGTTVTVSS VL: DIQMTQSPSSLSASVGDRVTITCRASQDISNYLNWYQQKPGKAPKLLIYYTSTLHSGVPSRFSGSGSGTDYTLTISSLQPEDFATYYCQQGYTLPWTFGQGTKLEIKR is greater than or equal to 400000 M⁻¹ s⁻¹.
Output: not fulfilled

Input: Determine whether this binder has kon no lower than 400000 M⁻¹ s⁻¹: Humanized 1D9 RR antibody (H6L2) (antibody, human IgG1, V domains shown, Human IgG1; also called 1D9 H6L2 RR antibody; h1D9 RR wt) VH: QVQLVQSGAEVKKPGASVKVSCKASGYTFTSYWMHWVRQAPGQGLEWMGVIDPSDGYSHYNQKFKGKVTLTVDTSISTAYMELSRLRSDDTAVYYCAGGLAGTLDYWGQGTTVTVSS VL: DIQMTQSPSSLSASVGDRVTITCRSSQSIVHSSGNTYLQWFQQKPGKAPKLLIYKVSNRFSGVPSRFSGSGSGTDFTLTISSLQPEDFAVYYCFQGSHVPWTFGQGTKLEIKRR
Output: fulfilled

Input: Does the binder 1D9 H6L6 RR antibody (antibody, V domains shown, To be rechecked) VH: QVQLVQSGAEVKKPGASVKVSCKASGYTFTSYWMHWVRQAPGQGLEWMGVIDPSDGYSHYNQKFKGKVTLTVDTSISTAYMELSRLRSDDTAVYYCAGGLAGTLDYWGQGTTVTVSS VL: DVVMTQSPLSLPVTLGQPASISCRSSQSIVHSSGNTYLQWFQQRPGQSPRRLIYKVSNRFSGVPDRFSGSGSGTDFTLKISRVEAEDVGVYYCFQGSHVPWTFGQGTKLEIKR have recorded kon that is 400000 M⁻¹ s⁻¹ or more?
Output: fulfilled
